# Tested on: HepG2 cell line
# measurement protocol: In vitro toxicity study on HepG2 cell line (resazurin, viability and IC50)
# Assay type: cell-based, human
# reported conditions: HepG2 cells, 12.5 μM lipid, 48 h post-treatment, resazurin, relative to ethanol vehicle controls
Field: Viability (%) at different lipid concentrations, mean. Provide a value for each of the compounds that follow.
Note: state the figure and append the unit.

Just so you know, measured Viability (%) at different lipid concentrations, mean for CCCCCCCC/C=C\CCCCCCCCOC(CCCCCCCCCCCCCCC)O[Si](C)(C)OCCCCCCN(CCO)CCO (stereo not shown) came out at 97.6%

So for C#CCN(C)CCCCCCO[Si](C)(C)OC(CC(C)(C)C(=O)OCCCCCCCC/C=C\CCCCCCCC)OCCCCCCCC/C=C\CCCCCCCC (stereo not shown) , the logged Viability (%) at different lipid concentrations, mean turned out to be 96.1%

Form: compound = CCCCCCCC/C=C\CCCCCCCC(OCCCCCCCCCCCCCCC(C)C)O[Si](C)(C)OCCCCCCN(CCO)CCO (stereo not shown) ; Viability (%) at different lipid concentrations, mean = 100.5%

Record CCCCCCCC/C=C\CCCCCCCC(OCCCCCCCCCCCCCCCC)O[Si](C)(C)OCCCCCCN(CCO)CCO (stereo not shown) . Reported Viability (%) at different lipid concentrations, mean: 100.0%

// field: Viability (%) at different lipid concentrations, mean; key: CCCCCCCCCCCCCCCCOC(CCCCCCCCCCCCCCC)O[Si](C)(C)OCCCCCCN(CCO)CCO (stereo not shown) ; value = 100.3%

Form: compound = CCCCC/C=C\C/C=C\CCCCCCCCOC(CCCCCCC/C=C\C/C=C\CCCCC)O[Si](C)(C)OCCCCCCN(CCCO)CCCO (stereo not shown) ; Viability (%) at different lipid concentrations, mean = 110.1%

Short answer for CCCCCCCC/C=C\CCCCCCCC(OCC(CCCCCCCC)SCCCCC)O[Si](C)(C)OCCCCCCN(CCO)CCO (stereo not shown) : Viability (%) at different lipid concentrations, mean was 94.1%

Lookup result for CCCCC/C=C\C/C=C\CCCCCCCCOC(CCCCCCC/C=C\C/C=C\CCCCC)O[Si](C)(C)OCCCCCCN(C)CC(O)CO (stereo not shown) ; measured Viability (%) at different lipid concentrations, mean: 100.1%

The reported value for CCCCCCCC/C=C\CCCCCCCCOC(=O)C(C)(C)CC(OCCCCCCCC/C=C\CCCCCCCC)O[Si](C)(C)OCCCCCCN(CCCCO)CCCCO (stereo not shown) in terms of Viability (%) at different lipid concentrations, mean is 107.0%

CCCCCCCC/C=C\CCCCCCCCOC(CCCCCCC/C=C\CCCCCCCC)O[Si](C)(C)OCCCCCCN(C)[C@H](CO)Cc1ccccc1 (stereo partly shown) has a reported Viability (%) at different lipid concentrations, mean of 101.6%

What the record says about CCCCCCCC/C=C\CCCCCCCCOC(=O)C(C)(C)CC(OCCCCCCCC/C=C\CCCCCCCC)O[Si](C)(C)OCCCCCCN1CCCC1CO (stereo not shown) : Viability (%) at different lipid concentrations, mean is 96.4%

Notebook: CCCCCCCC/C=C\CCCCCCCCOC(CC[C@@H](C)C1CCC2C3CCC4C[C@H](OC)CC[C@]4(C)C3CC[C@@]21C)O[Si](C)(C)OCCCCCCN(CCO)CCO (stereo partly shown) , Viability (%) at different lipid concentrations, mean read as 94.4%

Lookup result for CCCCC/C=C\C/C=C\CCCCCCCCOC(CC[C@@H](C)C1CCC2C3CCC4C[C@H](OC)CC[C@]4(C)C3CC[C@@]21C)O[Si](C)(C)OCCCCCCN(CCO)CCO (stereo partly shown) ; measured Viability (%) at different lipid concentrations, mean: 101.1%
